The values you see were collected from ChEMBL document CHEMBL4028850.

# protocol.description: Tmax in cynomolgus monkey at 1 mg/kg administered via oral gavage measured up to 72 hrs post dose
# Format: ADME, organism-based, Macaca fascicularis
# assay.conditions: in vivo

| smiles.record | Tmax |
| --- | --- |
| Cc1cc(COc2nc(N)nc3ccn(Cc4ccccn4)c23)no1 | 1 to 2 h |

====

# protocol.description: Cmax in C57Bl/6 mouse plasma at 0.3 mg/kg, po measured after 0.5 hrs by LC-MS analysis
# Format: ADME, organism-based
# Design: dose 0.3 mg/kg, route oral

| smiles.record | Cmax, ng/mL |
| --- | --- |
| Cc1cc(COc2nc(N)nc3ccn(Cc4ccccn4)c23)no1 | 3.7 |
